Biological target: canine CD3 on canine T cells (canine PBMC) (canine, UniProt P27597 22-202)
Sequence (P27597 22-202 limits assumed, chain 1 of 3): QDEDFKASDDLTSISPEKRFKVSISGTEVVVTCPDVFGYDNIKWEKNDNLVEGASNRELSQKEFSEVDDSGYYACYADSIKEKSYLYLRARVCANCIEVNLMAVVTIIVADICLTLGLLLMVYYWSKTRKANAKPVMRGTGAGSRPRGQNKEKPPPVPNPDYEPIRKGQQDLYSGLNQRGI
Sequence (chain, as listed by the source limits assumed, chain 2 of 3): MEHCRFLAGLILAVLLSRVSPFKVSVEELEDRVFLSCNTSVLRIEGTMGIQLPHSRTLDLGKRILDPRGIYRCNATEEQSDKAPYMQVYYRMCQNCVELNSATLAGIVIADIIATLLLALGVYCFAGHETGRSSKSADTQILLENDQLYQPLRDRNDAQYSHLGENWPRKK
Sequence (chain, as listed by the source limits assumed, chain 3 of 3): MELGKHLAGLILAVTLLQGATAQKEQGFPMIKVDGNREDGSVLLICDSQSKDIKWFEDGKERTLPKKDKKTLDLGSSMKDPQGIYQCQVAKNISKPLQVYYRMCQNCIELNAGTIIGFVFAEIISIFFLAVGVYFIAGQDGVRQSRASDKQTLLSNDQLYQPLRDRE
Test: cell-based or functional assay
Parameter Ki67 Proliferation, Day 9, IS: see the listing below.
Enter a number only.

Here are 2 binders together with their reported answers.
PMX168 (monospecific anti-canine CD3, canine IgG-B effector function deficient Fc) (antibody, V domains shown) VH: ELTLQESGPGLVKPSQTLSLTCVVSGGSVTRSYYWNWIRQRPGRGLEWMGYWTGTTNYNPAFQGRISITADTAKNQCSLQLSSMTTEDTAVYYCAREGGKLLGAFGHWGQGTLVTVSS VL: SYVLTQLPSKNVTLKQPAHITCGGDKIGSKSVHWYQQKLGQAPVLIIYYDSSRPTGIPERFSGANSGNTATLTISGALAEDEADYYCQVWDSSAKASVFGGGTHLTVL	1.53
PMX196 (monospecific anti-canine CD3, canine IgG-B effector function deficient Fc) (antibody, V domains shown) VH: ELTLQESGPGLVKPSQTLSLTCVVSGGSVTSSYYWNWIRQRPGRGLEWMGYWTGSTIYNPAFQGRISITADTAKNQFSLQLSSMTTEDTAVYFCVRERRMAFGSWGQGTLVIVSS VL: SYVLTQLPSKSVTLKQPAHITCGGDNIGRKSVHWYQQKLGQAPVLIISFDNNRPTGIPERFSGANSGNTATLTISGALAEDEADYYCQVWDSSAKASVFGGGTHLTVL	0.94

Find the recorded Ki67 Proliferation, Day 9, IS belonging to PMX177 (monospecific anti-canine CD3, canine IgG-B effector function deficient Fc) (antibody, V domains shown) VH: EVTLQESGPGLVKPSQTLSLTCVVSGGSVTSSFYWNWIRQRPGRGLEWMGYWTGSTNYNPAFQGRISITADTAKNQFSLHLGSMTTDDTAMYYCAREEGSWGRVYFDYWGQGTLVTVSS VL: SYVLTQLPSKNVTLKQPAHITCGGDNIGSKSVHWYQQKLGQAPVLIIYYDSSRPTGIPERFSGANSGNTATLTISGALAEDEADYYCQVWDSSTKTWVFGEGTQLTVL and report it.
3.19

Find the recorded Ki67 Proliferation, Day 9, IS belonging to PMX166 (monospecific anti-canine CD3, canine IgG-B effector function deficient Fc) (antibody, V domains shown) VH: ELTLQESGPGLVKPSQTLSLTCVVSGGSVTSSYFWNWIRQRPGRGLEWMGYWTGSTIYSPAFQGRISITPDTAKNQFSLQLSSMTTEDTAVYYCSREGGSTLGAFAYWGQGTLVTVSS VL: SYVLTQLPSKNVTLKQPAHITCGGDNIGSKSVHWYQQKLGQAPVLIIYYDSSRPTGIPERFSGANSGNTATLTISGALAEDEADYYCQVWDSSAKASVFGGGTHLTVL and report it.
0.92

Find the recorded Ki67 Proliferation, Day 9, IS belonging to PMX198 (monospecific anti-canine CD3, canine IgG-B effector function deficient Fc) (antibody, V domains shown) VH: EFTLQESGPGLVKPSQTLSLTCIVSGGSVTSSYYWNWIRQRPGRGLEWMGYWTGSTNYNPAFQGRISITPDTAKNQFSLQLSSMTTEDTAVYYCAREGGSSLQAFGNWGQGTLVTVSS VL: SYVLTQLPSKNVTLKQPAHITCGGDNIGRKSVHWYQQKLGQAPILIIYYDSSRPTGIPERFSGANSGNTATLTISGALAEDEADYYCQVWDSSAKASVFGGGTHLTVL and report it.
4.37
